The measurements presented in this section are drawn from PubChem BioAssay AID330.

- Tested on: P388 leukemia ip, CD2F1 mice, survival T/C
- Assay Explanation: NCI In Vivo Anticancer Drug Screen. Data for tumor model P388 Leukemia (intraperitoneal) in CD2F1 (CDF1) mice
- Study Conditions: endpoint: median survival time; dose: 100.0 mg/kg/injection; schedule: Q01DX009 (ip); vehicle: Klucel (hydroxypropylcellulose) (HPC); higher = longer survival
Inconclusive results and toxic doses are left out.
Each record here notes measured T/C.

Compound: Nc1ccc(-c2csc(COc3ccccc3)n2)cc1
T/C: 106 % of control

Compound: O=S(=O)(Nc1cc2ccccc2cc1NS(=O)(=O)N1CCCCC1)N1CCCCC1
T/C: 89 % of control

Compound: Cc1c(CN2CCOC(c3ccccc3)C2C)c(=O)n(-c2ccccc2)n1C (stereo not given)
T/C: 103 % of control

Compound: CC(N)(CSCc1ccccc1)C(=O)O (stereo not given)
T/C: 107 % of control

Compound: O=c1[nH]c(=O)n(Cl)c(=O)n1Cl
T/C: 99 % of control

Compound: CNC(=O)N(C)CN(C)C(=O)NC
T/C: 106 % of control

Compound: CCOC(=O)C1=C(C)NC(C)=C(C(=O)OCC)C1c1ccccn1
T/C: 97 % of control

Compound: Cn1c(-c2ccccc2)c(-c2ccccc2)c(=O)c(-c2ccccc2)c1-c1ccccc1
T/C: 92 % of control

Compound: O=C(NCO)NS(=O)(=O)c1ccc(N2C(=O)c3ccccc3C2=O)cc1
T/C: 107 % of control

Compound: CCCCCCCCCCCCCCCCS(=O)(=O)N/N=C(/C)N(C)c1ccc(OC)cc1
T/C: 107 % of control

Compound: NC(=O)Nc1ccc(Cc2ccc(NC(N)=O)cc2)cc1
T/C: 94 % of control

Compound: CCCCCCCCCCCCCCCC(=O)OCC(CO)OC(=O)CCCCCCCCCCCCCCC (stereo not given)
T/C: 87 % of control

Compound: Cc1cccc(NC(=O)Oc2ccc(Cl)c3cccnc23)c1
T/C: 102 % of control

Compound: OC(CNC1CC2CCC1C2)COc1cccc2ccccc12 (stereo not given)
T/C: 110 % of control

Compound: Cc1ccc(N=Cc2ccc(C=Nc3ccc(C)c(Cl)c3)cc2)cc1Cl
T/C: 91 % of control

Compound: CCCCCCCCCCCCN1CCS(=O)(=O)CC1
T/C: 118 % of control

Compound: CN(C)P1(=O)OCC(C(C)(C)C)CN1C (stereo not given)
T/C: 107 % of control

Compound: CCc1c(C)c(SC)n(C)c(=O)c1C#N
T/C: 97 % of control

Compound: Cc1c(C)c2ccc(N(C)C)cc2[nH]c1=O
T/C: 106 % of control

Compound: C=C1C(=O)OC2/C=C(\CO)C(OC(C)=O)CC(O)/C(C)=C/C(OC(=O)C(C)CC)C12 (stereo not given)
T/C: 121 % of control

Compound: Cc1ccc([N+](=O)[O-])cc1I
T/C: 99 % of control

Compound: Clc1ccc(NC2=NCCS2)cc1Cl
T/C: 92 % of control

Compound: O=C1NCC(N2C(=O)CC3(CCCC3)C2=O)O1 (stereo not given)
T/C: 94 % of control

Compound: CCOC(=O)/C(C=NCC(C)(CN=C/C(C(=O)OCC)=C(/C)O)CN=C/C(C(=O)OCC)=C(/C)O)=C(\C)O (stereo not given)
T/C: 90 % of control

Compound: COCCO[Si](OCCOC)(OCCOC)c1ccccc1
T/C: 107 % of control

Compound: O=C(O)c1cc(-c2c(Cl)cccc2Cl)nc2cc3ccccc3cc12
T/C: 106 % of control

Compound: NC(=O)c1ncn(C2OC(CO)C(O)C2O)c1O (stereo not given)
T/C: 113 % of control

Compound: CC1(C)C/C(=C\c2ccc([N+](=O)[O-])cc2)C(=O)c2ccccc21
T/C: 99 % of control

Compound: COc1cc(C=O)cc(Br)c1O
T/C: 108 % of control

Compound: CSc1nc(N)c(C(=O)NC2CCCCC2)s1
T/C: 100 % of control

Compound: Clc1ccc(N=NN2CCc3ccccc3C2)cc1
T/C: 99 % of control

Compound: CCCS(=O)(=O)N/N=C(\C)c1cccs1
T/C: 87 % of control

Compound: Cc1cc(Br)ccc1N=c1scc(-c2ccc(Cl)cc2)n1C
T/C: 93 % of control

Compound: c1cc2c(cc1C1SCSCS1)OCO2
T/C: 100 % of control

Compound: CCOC(=O)C1(CN2C(=O)c3ccccc3C2=O)C(=O)Nc2ccccc21 (stereo not given)
T/C: 87 % of control
